Cited source: PubChem BioAssay (Tox21)

Test: qHTS assay to identify small molecule antagonists of the estrogen related receptor signaling pathway with the pleiotropic PPARgamma coactivator (PGC) from Tox21 10K library - cell viability counter screen (AID 1224840); also: nearly all actives have a fitted effect of over 40% in size
Conditions: PGC/ERR reporter cells viability, CellTiter-Fluor, 17.5 h; series mostly up to 92.4 µM
Description: National Center for Advancing Translational Sciences [NCATS] NIH Chemical Genomics Center [NCGC] U.S. Environmental Protection Agency [EPA] National Institutes of Environmental Health Sciences [NIEHS] National Toxicology Program [NTP] […] The PGC/ERR cells were dispensed at 2,000 cells/5 ul/well in 1536-well white plates using a Multidrop dispenser. […] After 30-minute incubation at 37 C/5% CO2, the fluorescence intensity in the plates was measured using a ViewLux plate reader.
Results filed as inconclusive are left out. Active and inactive are the calls of the source. Calls follow the shape of the dose curve; as a rule, active = well fitted cell-killing curve with a large enough effect in the repeat runs (not every such curve was filed as active); inconclusive = weak or mixed curves, or effect the other way; inactive = no such curve, though single readings can be large or run the other way.
Could you please pick one outcome from this set? active, inactive

Answered examples (5):
CC1CCCCN1CCCOC(=O)c1ccc(OC2CCCCC2)cc1 (centres undefined)
inactive
NC(=O)c1ccccc1N
inactive
NC1(c2ccc(-c3nc4ccn5c(=O)[nH]nc5c4cc3-c3ccccc3)cc2)CCC1
active
CC1(C)C(=O)N(CO)C(=O)N1CO
inactive
Clc1ccccc1CN1CCc2sccc2C1
inactive

Which outcome was entered for the molecule `Cc1cc(Nc2ccc(O)cc2)ccc1N` in this test?
active

# outcome recorded in this test, key = `COC(=O)CC#N`
inactive

Hey, what did the test say about `Clc1nc2ccccc2s1` ?
inactive

Lab log entry: `CCOB(OCC)OCC` — outcome as called in the assay?
inactive

Hello, I am checking results. What call was entered for `c1ccc(Sc2ccccc2)cc1` ?
inactive

Status in this test for `CCCCCCCC/C=C\CCCCCCCC(=O)OCCOC(=O)CCCCCCC/C=C\CCCCCCCC` ?
inactive

Kindly provide the recorded test outcome for the following molecule: `CC(C)=C1CC[C@@H](C)CC1=O`
inactive

Recorded call for C=CC(C)(CCC=C(C)C)OC(=O)/C=C/c1ccccc1 (centres undefined) ?
inactive

Which outcome was assigned to `COCC(=O)O[C@]1(CCN(C)CCCc2nc3ccccc3[nH]2)CCc2cc(F)ccc2[C@@H]1C(C)C` in this test?
active
